Target: Alpha-bungarotoxin (Bungarus multicinctus) (UniProt P60615)
Sequence (P60615 whole entry, looked up): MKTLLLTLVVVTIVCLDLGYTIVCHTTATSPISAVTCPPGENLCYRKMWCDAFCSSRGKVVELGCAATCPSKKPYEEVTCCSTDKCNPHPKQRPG
Test: compounds binding labelled alpha-BTX control protein – biochemical, small-molecule microarray, Alexa647 label, 635/667 nm fluorescence, artefact control for SMM control protein annotation, profiling panel (AID 1117)
Conditions: alpha-BTX-A647 binding fluorescence, higher = more signal
Entries and their composite z-score

# count of solved cases: 3
| compound | target-desc | assay-value |
| --- | --- | --- |
| CC(C)C(CO)N1C(=O)[C@@H]2C3C(=O)OCCC/C=C\[C@H]3OC23C=CCN(Cc2ccccc2)C(=O)[C@@H]13 (stereo partly specified) | Alpha-bungarotoxin (Bungarus multicinctus) (UniProt P60615) | -1.68 |
| CCCCC(=C=CC[C@H](O)c1ccc(CO)o1)CCO | Alpha-bungarotoxin (Bungarus multicinctus) (UniProt P60615) | 0.221 |
| COc1cc(C(O)C2C=CC3C(=O)N(c4ccccc4)C(=O)C3N2Nc2ccccc2F)cc(OC)c1OC (stereo unspecified) | Alpha-bungarotoxin (Bungarus multicinctus) (UniProt P60615) | 0.983 |

Q: Record request: composite z-score value, item O=C1OCCC=C[C@H]2OC34C=CCN(c5ccc6ccccc6c5)C(=O)[C@H]3N(CCO)C(=O)[C@@H]4C12 (stereo partly specified)
A: 0.0797

Q: Record request: composite z-score value, item O=C1O[C@@H](c2ccccc2)[C@@H](c2ccccc2)N2[C@@H](c3ccc(OCCO)cc3)[C@]3(C(=O)Nc4ccc(C#CC5(O)CCCCCC5)cc43)[C@@H](C(=O)Nc3nc4ccccc4s3)[C@H]12
A: 1.41

Q: For the compound CCCC#C[Si](O[C@H](CC)c1cn(Cc2ccccc2)nn1)(C(C)C)C(C)C , what composite z-score is on record?
A: 1.11

Q: Entry under review: COC(=O)[C@@]1(Cc2ccccc2)[C@H]2c3cc(C(=O)N(C)C)n(Cc4ccc(C(F)(F)F)nc4)c3C[C@H]2CN1C(=O)c1ccccc1 . Reported composite z-score?
A: 0.82

Q: Entry under review: O=C1C[C@@](C(=O)NCc2ccccc2)(c2ccc([N+](=O)[O-])cc2)[C@@H](c2ccc(CO)cc2)N1C1CCCCC1 . Reported composite z-score?
A: 1.72

Q: Request the reported composite z-score associated with C=CCOC(=O)[C@H]1[C@@H]2C(=O)O[C@@H](c3ccccc3)[C@@H](c3ccccc3)N2[C@@H](c2ccc(OCCOC(=O)[C@H]3C[C@H]4C(=O)N[C@@H](CC(C)C)C(=O)N4[C@H]3c3ccc(O)cc3)cc2)[C@]12C(=O)Nc1ccccc12
A: 1.52

Q: // returns reported composite z-score for input [N-]=[N+]=Nc1ccccc1C[C@@]1(C(=O)NCc2ccccc2)N=C(c2ccc(OCCCO)cc2)O[C@@H]1c1ccccc1N=[N+]=[N-]
A: 1.97

Q: Look up composite z-score for this compound: CN1C(=O)C2C=CC(C(O)c3ccc(-c4ccccc4)s3)N(NC(=O)OC(C)(C)C)C2C1=O (stereo unspecified)
A: 1.62

Q: Suppose we examine the compound NC(=O)N1C(=O)C2C(C1=O)C1C=C(CCCO)C2C(c2ccc(CN3CCCC3)cc2)N1Cc1sc2ccccc2c1Cl (stereo unspecified) ; what composite z-score value has been reported?
A: 0.187

Q: May I ask what composite z-score has been recorded for Cc1ccc(S[C@]2(C(=O)NCC(F)(F)F)CC(=O)N(Cc3ccccc3C(F)(F)F)[C@@H]2c2ccc(CO)cc2)cc1 ?
A: -0.693

Q: What value of composite z-score has been recorded for this entry: COC(=O)[C@@]1(Cc2ccc(OC)cc2)[C@H]2c3cc(C(=O)N4CCCC4)n(CCn4cc([N+](=O)[O-])nc4C)c3C[C@H]2CN1C(=O)c1ccccc1
A: 0.299

Q: composite z-score for CO[C@H]1O[C@H](CO)[C@@H](OC(=O)Nc2ccc3c(c2)OCO3)[C@H](OC(=O)Nc2ccccc2-c2ccccc2)[C@H]1OC(=O)Nc1ccccc1-c1ccccc1 ?
A: 0.557

Q: Quick one: composite z-score for O=C1[C@H]2C=C(I)[C@H](C[C@@H]2c2ccccc2)[C@@]12CO2 ?
A: 0.0292

Q: Which composite z-score reading was recorded for the compound COCCCNC(=O)[C@@]1(CCS(=O)(=O)c2ccccc2)COC(c2ccc(OCCCO)cc2)=N1 ?
A: 3.34

Q: # lookup: composite z-score of C=CCOC(=O)[C@@H]1[C@H]2C(=O)O[C@H](c3ccccc3)[C@H](c3ccccc3)N2[C@H](c2ccc(OCCOC(=O)[C@H]3C[C@H]4C(=O)NCC(=O)N4[C@H]3c3cccc(OCCO)c3)cc2)[C@@]12C(=O)Nc1ccc(I)cc12
A: 1.39

Q: # get_value(readout='composite z-score', item= Cc1ccc(C(C)CC(O)C2C=CC3C(=O)N(C)C(=O)C3N2Nc2ccccc2)o1 (stereo unspecified) )
A: 0.6

Q: Form field: reported composite z-score of COc1ccc(CCNC(=O)[C@@H]2c3ccccc3C(=O)N(Cc3ccccc3OC)[C@H]2c2ccc(CO)cc2)cc1
A: 0.75

Q: For the compound shown here, O=C(NCc1ccccc1)[C@@H]1c2ccccc2C(=O)N(Cc2ccc(OC(F)(F)F)cc2)[C@H]1c1ccc(CO)cc1 , give the reported composite z-score.
A: -0.0863

---

Target: Left-right determination factor 2 (Homo sapiens)
Assay: small molecules binding LEFTY2 protein – biochemical, small-molecule microarray, 635 nm fluorescence scan, primary screen (AID 1110)
Conditions: higher = more signal
Label fulfilled when composite z-score is at or above 0.3; anything below gets not fulfilled.

| compound | discrete-label |
| --- | --- |
| CC(C)NC(=O)[C@@H]1c2ccccc2C(=O)N(Cc2ccccc2C(F)(F)F)[C@H]1c1ccc(CO)cc1 | not fulfilled |
| COc1ccc([Si](C)(C)[C@@H]2[C@@H](CC(=O)N3Cc4ccccc4C[C@H]3CO)O[C@]3(C(=O)N(Cc4cccc(N5CCOC5=O)c4)c4ccccc43)[C@H]2C)cc1 | fulfilled |
| O=C1C2C=CC(C(O)c3cccs3)N(Nc3ccc([N+](=O)[O-])cc3)C2C(=O)N1c1ccccc1 (configuration not stated) | fulfilled |
| CC(C)N1C(=O)C[C@@](C(=O)NCCN2CCOCC2)(c2ccc([N+](=O)[O-])cc2)[C@H]1c1ccc(CO)cc1 | not fulfilled |
| CC1CC/C=C\[C@H]2OC34C=CCN(c5ccc(Cl)cc5)C(=O)[C@H]3N(CCCCCCO)C(=O)[C@]4(C)C2C(=O)O1 (some centres not stated) | not fulfilled |
| O=C(NC1CC1)[C@@H]1c2ccccc2C(=O)N(CC23CC4CC(CC(C4)C2)C3)[C@H]1c1ccc(CO)cc1 | fulfilled |

Now consider a different compound.
Q: Could you tell me if the measured composite z-score of N#Cc1ccc(C(O)C2C=CC3C(=O)NC(=O)C3N2Nc2ccc(Cl)cc2Cl)cc1 (configuration not stated) reaches 0.3 or more?
A: not fulfilled

---

A collection of compounds and their measured z-score
Experiment: FRG1 expression reporter modulators in myotubes – cell-based, C2C12 myotubes, firefly/Renilla luciferase, luminescence, FRG1 inhibition for FSHD, primary screen (AID 1084)
Conditions: FRG1 promoter luciferase, higher = more signal, called active from +8 up or from −8 down
The source made the active and inactive calls.

Example compounds with recorded z-score:
| compound | assay-value |
| --- | --- |
| COc1ccc(C(O)C2C=CC3C(=O)N(c4ccccc4)C(=O)C3N2Nc2ccc([N+](=O)[O-])cc2)c2ccccc12 (centres undefined) | 0.337 (inactive) |
| CCOC(=O)C1=C[C@@H](C(C)(C)C)N(S(=O)(=O)c2ccc(C)cc2)[C@H]1c1ccc(C#N)cc1 | -0.793 (inactive) |
| C=CCOC(=O)[C@@H]1[C@H]2C(=O)O[C@H](c3ccccc3)[C@H](c3ccccc3)N2[C@H](c2ccc(OCCOC(=O)[C@H]3C[C@H]4C(=O)N[C@@H](CCCCN(C)C)C(=O)N4[C@H]3c3ccc(O)cc3)cc2)[C@@]12C(=O)Nc1ccc(I)cc12 | 0.921 (inactive) |

Below: the item to evaluate.
Q: Consider the compound CC(C)(C)OC(=O)CC[C@]1(C(=O)NCC(O)CO)N=C(c2ccc(OCCCO)cc2)O[C@H]1c1ccccc1N=[N+]=[N-] (some centres undefined) and give its measured z-score.
A: 3.99 (inactive)

---

System: Noggin (protein binding on small-molecule microarray)
Test: small molecules binding Noggin protein – biochemical, 635/667 nm fluorescence, primary screen (AID 1095);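 also: score merges 667 nm feature fluorescence with signal to noise over triplicate slides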
Details: 635 nm fluorescence, higher = more signal
measurement-kind: composite z-score
// return just the number, without any unit appended

Below are worked cases with known answers.
| molecule | composite z-score |
| --- | --- |
| O=C1O[C@H](Cc2ccccc2)[C@@H]2[C@H]3C=CCCC=C3CN2[C@H]1Cc1ccc(O)cc1 | -0.0371 |
| CC1CC/C=C\[C@H]2OC34C=CCN(Cn5nnc6ccccc65)C(=O)[C@H]3N(CCCCCCO)C(=O)[C@@H]4C2C(=O)O1 (stereo partly drawn) | -1.09 |

Proceed to the following item.
Q: What measured composite z-score is associated with Cc1ccc(S[C@]2(C(=O)NC3CC3)CC(=O)N(C(C)C)[C@@H]2c2ccc(CO)cc2I)cc1 on Noggin (protein binding on small-molecule microarray)?
A: -0.294

Hey, just so you know, these numbers are from PubChem BioAssay.
